# Assay Comment: Example 10: 3-APS concentration in cerebrospinal fluid of AD patients
# Assay type: in vivo
# Measurement Parameters: human, dose 150 mg twice daily oral for 12 weeks, Day 2 of Week 12, read-out: CSF concentration with mean ± standard deviation
# Procedure: A multicenter, randomized, double-blind, placebo-controlled and parallel designed study is made with 3-APS in the formulation described in Table 5 above in patients suffering from mild to moderate Alzheimer's Disease (AD). An objective of this study is to assess the safety and tolerability of 3-APS and to assess its pharmacokinetics in AD patients. […] Each patient is evaluated on 6 occasions at screening, baseline [Week 0], weeks 2, 4, 8 and 12. […]
Assay Endpoint: concentration at 5 h (ng/mL)
Express your answer in ng/mL, writing the number without its unit.

Request: Using the record for `NCCCS(=O)(=O)O` , report its concentration at 5 h.
Response: 3.87
